Target: UniProtKB P00390
Sequence (P00390 whole entry): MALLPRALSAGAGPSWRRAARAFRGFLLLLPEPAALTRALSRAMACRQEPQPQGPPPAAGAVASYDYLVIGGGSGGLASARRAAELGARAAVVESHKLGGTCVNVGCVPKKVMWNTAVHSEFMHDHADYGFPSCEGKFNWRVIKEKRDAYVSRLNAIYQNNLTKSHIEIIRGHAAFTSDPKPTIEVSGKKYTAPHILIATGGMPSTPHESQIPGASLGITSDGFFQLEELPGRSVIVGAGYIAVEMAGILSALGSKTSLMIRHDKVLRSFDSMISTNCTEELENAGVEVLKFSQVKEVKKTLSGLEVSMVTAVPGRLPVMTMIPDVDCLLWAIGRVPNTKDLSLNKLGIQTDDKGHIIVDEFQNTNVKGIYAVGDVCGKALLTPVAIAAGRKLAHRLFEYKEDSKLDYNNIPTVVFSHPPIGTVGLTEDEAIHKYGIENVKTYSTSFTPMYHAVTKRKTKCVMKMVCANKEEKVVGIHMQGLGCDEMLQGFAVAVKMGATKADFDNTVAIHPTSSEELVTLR
Assay endpoint: Ki (µM)
Give the value, in units of µM, as a plain number.

Tell me the measured Ki of CCN1CCN(C(=O)N[C@@H](C(=O)N[C@@H]2C(=O)N3C(C(=O)O)=C(CSc4nnnn4C)CS[C@H]23)c2ccc(O)cc2)C(=O)C1=O [CEFOPERAZONE] , please.
28.7

---

Glutathione peroxidase 1 (Homo sapiens) IC50 data
Report as a plain number; the unit µM is understood.

Sample answers from the record:
1) CO/N=C(\C(=O)N[C@@H]1C(=O)N2C(C(=O)O)=CCS[C@H]12)c1csc(N)n1; 186
2) CO/N=C(\C(=O)N[C@@H]1C(=O)N2C(C(=O)O)=C(COC(N)=O)CS[C@H]12)c1ccco1; 44.3

Which IC50 reading was recorded for the compound "CCN1CCN(C(=O)N[C@@H](C(=O)N[C@@H]2C(=O)N3C(C(=O)O)=C(CSc4nnnn4C)CS[C@H]23)c2ccc(O)cc2)C(=O)C1=O" ?
313

---

Target protein (sequence): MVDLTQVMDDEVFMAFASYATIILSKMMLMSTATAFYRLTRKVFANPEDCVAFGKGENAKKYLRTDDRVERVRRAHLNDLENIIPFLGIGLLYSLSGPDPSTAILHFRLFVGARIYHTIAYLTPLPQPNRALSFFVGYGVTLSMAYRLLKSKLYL
Assay endpoint: pKi
As a rule, pKi stands for the negative log10 of the concentration, concentration in M.

1. CO/N=C(\C(=O)N[C@@H]1C(=O)N2C(C(=O)O)=CCS[C@H]12)c1csc(N)n1; 3.78

--- query ---
Could you share which pKi value was measured for "CO/N=C(\C(=O)N[C@@H]1C(=O)N2C(C(=O)O)=C(CSc3nc(=O)c(=O)[nH]n3C)CS[C@H]12)c1csc(N)n1" ?
4.45

---

// endpoint Ki / system Glutathione peroxidase 1 (Homo sapiens, UniProt P07203)
Numbers only; they are read as µM.

1) CO/N=C(\C(=O)N[C@@H]1C(=O)N2C(C(=O)O)=CCS[C@H]12)c1csc(N)n1; 121

Shift focus to the following entry.
Form field - read-out: Ki; system: Glutathione peroxidase 1 (Homo sapiens, UniProt P07203); submitted item: "CO/N=C(\C(=O)N[C@@H]1C(=O)N2C(C(=O)O)=C(COC(N)=O)CS[C@H]12)c1ccco1"
Sequence (P07203 whole entry): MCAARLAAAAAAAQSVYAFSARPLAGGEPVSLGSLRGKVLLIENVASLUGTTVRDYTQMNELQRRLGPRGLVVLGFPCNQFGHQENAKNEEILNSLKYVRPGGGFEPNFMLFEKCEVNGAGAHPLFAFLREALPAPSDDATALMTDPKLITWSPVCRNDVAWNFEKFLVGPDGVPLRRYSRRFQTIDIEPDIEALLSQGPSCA
32.7

---

Target protein (sequence): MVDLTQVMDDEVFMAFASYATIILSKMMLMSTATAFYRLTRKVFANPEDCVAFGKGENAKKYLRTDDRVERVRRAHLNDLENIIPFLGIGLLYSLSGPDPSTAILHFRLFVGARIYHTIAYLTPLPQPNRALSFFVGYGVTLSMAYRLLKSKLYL
Assay endpoint: IC50 (µM)
Quick note: give the figure in µM, leave out the unit.

1) CCN1CCN(C(=O)N[C@@H](C(=O)N[C@@H]2C(=O)N3C(C(=O)O)=C(CSc4nnnn4C)CS[C@H]23)c2ccc(O)cc2)C(=O)C1=O; 484

May I ask what IC50 has been recorded for "CO/N=C(\C(=O)N[C@@H]1C(=O)N2C(C(=O)O)=CCS[C@H]12)c1csc(N)n1" ?
278
